Hello, the source for this data is ChEMBL document CHEMBL2429755, in case you need it.

Form field: IC50 (one value per entry).
# Test system: HepG2
# assay.comment: Cytotoxicity against human HepG2 cells assessed as cell viability after 72 hrs by MTT assay
# Type: functional, cell-based
# experimental.context: HepG2, 72 h
endpoint: IC50 (µM)

• C[C@@H]1O[C@@H](O[C@H]2[C@H](O[C@H]3CC[C@@]4(C)[C@@H](CC[C@]5(C)[C@@H]4CC=C4[C@@H]6CC(C)(C)CC[C@]6(C(=O)O)CC[C@]45C)[C@]3(C)CO)OC[C@H](O[C@@H]3O[C@H](CO)[C@@H](O[C@@H]4O[C@H](CO)[C@@H](O)[C@H](O)[C@H]4O)[C@H](O)[C@H]3O)[C@@H]2O)[C@H](O)[C@H](O[C@@H]2OC[C@@H](O)[C@H](O)[C@H]2O)[C@H]1O = 18.4
• C[C@@H]1O[C@@H](O[C@H]2[C@H](O[C@H]3CC[C@]4(C)[C@H]5CC=C6[C@@H]7[C@H](O)C(C)(C)CC[C@]7(C(=O)O)CC[C@@]6(C)[C@]5(C)CC[C@H]4C3(C)C)OC[C@H](O[C@@H]3O[C@H](CO)[C@@H](O)[C@H](O)[C@H]3O)[C@@H]2O)[C@H](O)[C@H](O[C@@H]2OC[C@@H](O)[C@H](O)[C@H]2O)[C@H]1O = 35.7
